# Assay comment: Inhibition of NOX in fMLP-induced PMN cells assessed as ROS production
Readout: IC50 (µM)
Give your result in µM as a bare value.

As a guide, the following entries are already answered.
- C=C(CC[C@@H](C)[C@H]1CC[C@H]2C3=C(C(=O)C[C@]12C)[C@@]1(C)CCC(=O)[C@@H](C)[C@@H]1C[C@@H]3O)C(C)C(=O)OC (stereo partly specified): 11.2
- C=C(C)C#Cc1c(OC)cc(OC)c(OC)c1C: 15.1
- C[C@H](/C=C/[C@H](C)[C@H](C)CO)[C@H]1CC[C@H]2C3=CC[C@H]4CC(=O)CC[C@]4(C)[C@H]3CC[C@]12C: 17.5

Task item: Entry C=C(C)C#Cc1c(C)c(OC)c(OC)c2c1OCO2 : reported IC50 = ?
Reply: 14.4

Task item: Entry C=C(CC[C@@H](C)[C@H]1CC[C@H]2C3=C(C(=O)C[C@]12C)[C@@]1(C)CCC(=O)[C@@H](C)[C@@H]1CC3)C(C)C(=O)OC (stereo partly specified) [METHYLANTCINATE A] : reported IC50 = ?
Reply: 16.2

Task item: Entry C=C(CC[C@@H](C)[C@H]1CC[C@H]2C3=C(C(=O)C[C@]12C)[C@@]1(C)CCC(=O)[C@@H](C)[C@@H]1CC3)C(C)C(=O)O (stereo partly specified) : reported IC50 = ?
Reply: 29.2

----------
# System name: Nitric oxide synthase, inducible (Mus musculus)
# Sequence (P29477 whole entry): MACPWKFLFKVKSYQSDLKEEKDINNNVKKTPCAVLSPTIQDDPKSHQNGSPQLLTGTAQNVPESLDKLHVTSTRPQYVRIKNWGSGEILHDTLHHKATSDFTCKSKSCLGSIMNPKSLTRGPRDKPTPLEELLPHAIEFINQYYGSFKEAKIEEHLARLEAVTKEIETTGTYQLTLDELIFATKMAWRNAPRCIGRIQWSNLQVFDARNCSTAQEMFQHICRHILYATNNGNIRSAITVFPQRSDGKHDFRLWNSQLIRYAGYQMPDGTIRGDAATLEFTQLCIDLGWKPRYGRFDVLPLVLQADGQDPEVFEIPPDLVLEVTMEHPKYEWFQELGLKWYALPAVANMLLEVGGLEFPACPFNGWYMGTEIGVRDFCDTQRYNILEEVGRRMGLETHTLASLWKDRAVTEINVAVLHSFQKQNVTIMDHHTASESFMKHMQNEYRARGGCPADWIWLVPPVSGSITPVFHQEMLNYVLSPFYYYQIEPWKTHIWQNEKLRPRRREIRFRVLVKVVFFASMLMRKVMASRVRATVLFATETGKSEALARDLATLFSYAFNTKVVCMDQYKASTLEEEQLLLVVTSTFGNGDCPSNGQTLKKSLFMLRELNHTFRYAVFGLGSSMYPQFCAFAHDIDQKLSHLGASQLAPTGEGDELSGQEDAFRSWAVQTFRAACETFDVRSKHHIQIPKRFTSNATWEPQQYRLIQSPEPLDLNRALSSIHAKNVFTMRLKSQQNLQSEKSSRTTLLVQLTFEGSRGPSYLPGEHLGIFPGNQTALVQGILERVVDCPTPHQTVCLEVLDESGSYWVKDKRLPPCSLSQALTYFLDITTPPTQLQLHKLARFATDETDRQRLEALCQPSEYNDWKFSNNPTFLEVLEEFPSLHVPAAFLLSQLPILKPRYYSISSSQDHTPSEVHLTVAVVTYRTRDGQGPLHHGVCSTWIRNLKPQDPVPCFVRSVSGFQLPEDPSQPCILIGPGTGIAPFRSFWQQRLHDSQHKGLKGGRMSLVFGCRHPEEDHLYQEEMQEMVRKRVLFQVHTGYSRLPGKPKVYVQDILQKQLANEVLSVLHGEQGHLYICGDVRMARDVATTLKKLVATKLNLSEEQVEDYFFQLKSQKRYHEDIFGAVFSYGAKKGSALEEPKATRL
# Assay comment: Inhibition of iNOS in mouse BV2 microglial cells assessed as NO production
Readout: log10(IC50) (log10 of the value in µM)
All values: base-10 log of IC50 in µM.

Task item: Entry C=C(CC[C@@H](C)[C@H]1CC[C@H]2C3=C(C(=O)C[C@]12C)[C@@]1(C)CC[C@@H](O)[C@@H](C)[C@@H]1CC3=O)C(C)C(=O)O (stereo partly drawn) : reported log10(IC50) = ?
Reply: 0.98

Task item: Entry C=C(CC[C@@H](C)[C@H]1CC[C@H]2C3=C(C[C@H](O)[C@]12C)[C@@]1(C)CC[C@@H](O)[C@@H](C)[C@@H]1CC3=O)C(C)C(=O)OC (stereo partly drawn) [METHYL ANTCINATE H] : reported log10(IC50) = ?
Reply: 0.40

Task item: Entry C=C(CC[C@@H](C)[C@H]1CC[C@H]2C3=C(C(=O)C[C@]12C)[C@@]1(C)CC[C@@H](O)[C@@H](C)[C@@H]1C[C@@H]3O)C(C)C(=O)O (stereo partly drawn) : reported log10(IC50) = ?
Reply: 1.20

Task item: Entry C=C(CC[C@@H](C)[C@H]1CC[C@H]2C3=C(C(=O)C[C@]12C)[C@@]1(C)CCC(=O)[C@@H](C)[C@@H]1CC3=O)C(C)C(=O)OC (stereo partly drawn) : reported log10(IC50) = ?
Reply: -0.22

Task item: Entry C=C(CC[C@@H](C)[C@H]1CC[C@H]2C3=C(C(=O)C[C@]12C)[C@@]1(C)CCC(=O)[C@@H](C)[C@@H]1CC3=O)C(C)C(=O)O (stereo partly drawn) : reported log10(IC50) = ?
Reply: 0.56

Task item: Entry C[C@H](/C=C/[C@H](C)[C@H](C)CO)[C@H]1CC[C@H]2C3=CC[C@H]4CC(=O)CC[C@]4(C)[C@H]3CC[C@]12C : reported log10(IC50) = ?
Reply: 1.10

Task item: Entry C=C(CC[C@@H](C)[C@H]1CC[C@H]2C3=C(C(=O)C[C@]12C)[C@@]1(C)CCC(=O)[C@@H](C)[C@@H]1C[C@@H]3O)C(C)C(=O)O (stereo partly drawn) : reported log10(IC50) = ?
Reply: 0.62

Task item: Entry C=C(CC[C@@H](C)[C@H]1CC[C@@H]2C3=C(C(=O)C[C@@]21C)[C@@]1(C)CCC(=O)[C@@H](C)[C@@H]1CC3)C(C)C(=O)OC (stereo partly drawn) : reported log10(IC50) = ?
Reply: 0.20

----------
# Tested on: Daoy
# Assay comment: Cytotoxicity against human DaOY cells after 3 days by MTT assay
# Format: functional
# Experimental conditions: 72 h, read-out: ED50 (the source's name)
A collection of compounds and their measured EC50

• C=C(CC[C@@H](C)[C@H]1CC[C@H]2C3=C(C(=O)C[C@]12C)[C@@]1(C)CCC(=O)[C@@H](C)[C@@H]1C[C@@H]3O)C(C)C(=O)OC (stereo not given in full) = 4.4 µg/mL

--- query ---
Task item: Entry C=C(CC[C@@H](C)[C@H]1CC[C@H]2C3=C(C[C@H](O)[C@]12C)[C@@]1(C)CC[C@@H](O)[C@@H](C)[C@@H]1CC3=O)C(C)C(=O)OC (stereo not given in full) [METHYL ANTCINATE H] : reported EC50 = ?
Reply: > 20 µg/mL

----------
A collection of compounds and their measured IC50
# System name: UniProtKB P29477
# Sequence (P29477 whole entry): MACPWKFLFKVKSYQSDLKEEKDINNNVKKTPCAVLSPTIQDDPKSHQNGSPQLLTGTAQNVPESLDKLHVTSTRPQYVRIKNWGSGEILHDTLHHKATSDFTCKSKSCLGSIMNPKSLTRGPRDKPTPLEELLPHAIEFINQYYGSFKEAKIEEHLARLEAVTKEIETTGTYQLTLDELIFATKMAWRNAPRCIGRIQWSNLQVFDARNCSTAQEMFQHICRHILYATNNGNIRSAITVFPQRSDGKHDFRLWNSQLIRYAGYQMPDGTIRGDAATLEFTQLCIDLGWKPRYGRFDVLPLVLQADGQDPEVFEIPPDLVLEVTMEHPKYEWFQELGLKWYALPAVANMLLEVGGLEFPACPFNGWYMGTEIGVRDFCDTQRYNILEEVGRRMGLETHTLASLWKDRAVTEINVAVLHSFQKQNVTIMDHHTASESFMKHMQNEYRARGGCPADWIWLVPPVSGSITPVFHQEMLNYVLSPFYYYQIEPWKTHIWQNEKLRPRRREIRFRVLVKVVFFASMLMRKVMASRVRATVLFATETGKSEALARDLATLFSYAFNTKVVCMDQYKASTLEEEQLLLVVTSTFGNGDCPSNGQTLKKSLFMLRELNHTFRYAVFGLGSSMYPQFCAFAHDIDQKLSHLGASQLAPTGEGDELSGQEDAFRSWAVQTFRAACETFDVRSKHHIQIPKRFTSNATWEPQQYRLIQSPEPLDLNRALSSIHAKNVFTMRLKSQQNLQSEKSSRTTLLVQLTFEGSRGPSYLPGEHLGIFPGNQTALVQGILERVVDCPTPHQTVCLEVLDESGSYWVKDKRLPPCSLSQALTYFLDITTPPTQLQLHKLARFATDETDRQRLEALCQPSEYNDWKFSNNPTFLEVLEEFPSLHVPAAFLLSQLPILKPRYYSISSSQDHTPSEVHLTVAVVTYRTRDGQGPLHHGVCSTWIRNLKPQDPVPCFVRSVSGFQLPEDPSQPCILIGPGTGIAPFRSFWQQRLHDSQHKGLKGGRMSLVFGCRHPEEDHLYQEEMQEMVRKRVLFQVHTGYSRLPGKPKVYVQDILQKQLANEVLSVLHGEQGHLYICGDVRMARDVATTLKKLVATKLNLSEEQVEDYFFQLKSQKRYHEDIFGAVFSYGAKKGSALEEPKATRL
# Assay comment: Inhibition of iNOS in mouse BV2 microglial cells assessed as NO production
Give your result in µM as a bare value.

As a guide, the following entries are already answered.
* C=C(CC[C@@H](C)[C@H]1CC[C@H]2C3=C(C(=O)C[C@]12C)[C@@]1(C)CCC(=O)[C@@H](C)[C@@H]1CC3)C(C)C(=O)O (stereo partly specified) | 4.1
* C=C(CC[C@@H](C)[C@H]1CC[C@H]2C3=C(C(=O)C[C@]12C)[C@@]1(C)CCC(=O)[C@@H](C)[C@@H]1CC3)C(C)C(=O)OC (stereo partly specified) [METHYLANTCINATE A] | 1.5
* C=C(C)C#Cc1c(OC)cc(OC)c(OC)c1C | 7.2
* C=C(CC[C@@H](C)[C@H]1CC[C@H]2C3=C(C(=O)C[C@]12C)[C@@]1(C)CCC(=O)[C@@H](C)[C@@H]1C[C@@H]3O)C(C)C(=O)OC (stereo partly specified) | 2.5
* CC(C)[C@@H](C)/C=C/[C@@H](C)[C@H]1CC[C@H]2C3=CC=C4C[C@@H](O)CC[C@]4(C)[C@H]3CC[C@]12C | 30.6

--- query ---
Task item: # returns recorded IC50 (system: UniProtKB P29477) for C=C(CC[C@@H](C)[C@H]1CC[C@H]2C3=C(C(=O)[C@H](O)[C@]12C)[C@@]1(C)CC[C@@H](O)[C@@H](C)[C@@H]1CC3=O)C(C)C(=O)O (stereo partly specified)
Reply: 16.2

These data points were gathered from ChEMBL document CHEMBL1641547.
